biological target: GR complex; test: [35S]TBPS binding assay (inhibition of [35S]TBPS binding, cerebral cortex P2 homogenate); set-up: species or system rat; conditions: 2 nM [35S]TBPS, rat cerebral cortex P2 homogenate
PROPERTY: pIC50
Give bare numbers, as −log10 of the molar value.

C[C@@]1(O)CC[C@@]2(C)[C@@H](CC[C@@H]3[C@@H]2CC[C@]2(C)[C@@H](C(=O)Cn4cncn4)CC[C@@H]32)C1    6.90
C[C@]12CC[C@@H](O)C[C@H]1CC[C@@H]1[C@@H]2CC[C@]2(C)[C@@H](C(=O)Cn3cccn3)CC[C@@H]12    6.92
CC(=O)[C@H]1CC[C@H]2[C@@H]3CC[C@@H]4C[C@@](O)(C#Cc5ccc(N(C)C)cc5)CC[C@]4(C)[C@H]3CC[C@]12C    7.55

Now for another entry.
Name the recorded pIC50 of the compound listed here: CC12CCC(O)(C#CCO)CC1CCC1C2CCC2(C)C(C(=O)Cn3nccn3)CCC12 (stereo not shown)
6.37
